Reference for the values: paper PMC3855848

substrate: O=C1CCC[C@H]2CCCC[C@H]12; assay: purified protein; type: biochemical, Streptomyces coelicolor; settings: co-substrate NADPH
Hi there, I'd appreciate the recorded log10(kcat/Km) for every entry that follows.
Recall that a logarithmic scale is used here: each number is log10 of kcat/Km in M⁻¹ s⁻¹.

Report log10(kcat/Km) for each item below.
1. actKR (actinorhodin type II polyketide ketoreductase) (Streptomyces coelicolor A3(2); D109R) (protein) MATQDSEVALVTGATSGIGLEIARRLGKEGLRVFVCARGEEGLRTTLKELREAGVEADGRTCDVRSVPEIEALVAAVVERYGPVDVLVNNAGRPGGGATAELADELWLRVVETNLTGVFRVTKQVLKAGGMLERGTGRIVNIASTGGKQGVVHAAPYSASKHGVVGFTKALGLELARTGITVNAVCPGFVETPMAASVREHYSDIWEVSTEEAFDRITARVPIGRYVQPSEVAEMVAYLIGPGAAAVTAQALNVCGGLGNY
2. actKR (actinorhodin type II polyketide ketoreductase) (Streptomyces coelicolor A3(2); M194W) (protein) MATQDSEVALVTGATSGIGLEIARRLGKEGLRVFVCARGEEGLRTTLKELREAGVEADGRTCDVRSVPEIEALVAAVVERYGPVDVLVNNAGRPGGGATAELADELWLDVVETNLTGVFRVTKQVLKAGGMLERGTGRIVNIASTGGKQGVVHAAPYSASKHGVVGFTKALGLELARTGITVNAVCPGFVETPWAASVREHYSDIWEVSTEEAFDRITARVPIGRYVQPSEVAEMVAYLIGPGAAAVTAQALNVCGGLGNY

A)
1. 1.79
2. 2.11

Report log10(kcat/Km) for each item below.
1. actKR (actinorhodin type II polyketide ketoreductase) (Streptomyces coelicolor A3(2); T145A) (protein) MATQDSEVALVTGATSGIGLEIARRLGKEGLRVFVCARGEEGLRTTLKELREAGVEADGRTCDVRSVPEIEALVAAVVERYGPVDVLVNNAGRPGGGATAELADELWLDVVETNLTGVFRVTKQVLKAGGMLERGTGRIVNIASAGGKQGVVHAAPYSASKHGVVGFTKALGLELARTGITVNAVCPGFVETPMAASVREHYSDIWEVSTEEAFDRITARVPIGRYVQPSEVAEMVAYLIGPGAAAVTAQALNVCGGLGNY
2. actKR (actinorhodin type II polyketide ketoreductase) (Streptomyces coelicolor A3(2); V198A) (protein) MATQDSEVALVTGATSGIGLEIARRLGKEGLRVFVCARGEEGLRTTLKELREAGVEADGRTCDVRSVPEIEALVAAVVERYGPVDVLVNNAGRPGGGATAELADELWLDVVETNLTGVFRVTKQVLKAGGMLERGTGRIVNIASTGGKQGVVHAAPYSASKHGVVGFTKALGLELARTGITVNAVCPGFVETPMAASAREHYSDIWEVSTEEAFDRITARVPIGRYVQPSEVAEMVAYLIGPGAAAVTAQALNVCGGLGNY

A)
1. 2.62
2. 1.20

Report log10(kcat/Km) for each item below.
1. actKR (actinorhodin type II polyketide ketoreductase) (Streptomyces coelicolor A3(2); F189A) (protein) MATQDSEVALVTGATSGIGLEIARRLGKEGLRVFVCARGEEGLRTTLKELREAGVEADGRTCDVRSVPEIEALVAAVVERYGPVDVLVNNAGRPGGGATAELADELWLDVVETNLTGVFRVTKQVLKAGGMLERGTGRIVNIASTGGKQGVVHAAPYSASKHGVVGFTKALGLELARTGITVNAVCPGAVETPMAASVREHYSDIWEVSTEEAFDRITARVPIGRYVQPSEVAEMVAYLIGPGAAAVTAQALNVCGGLGNY
2. actKR (actinorhodin type II polyketide ketoreductase) (Streptomyces coelicolor A3(2)) (protein) MATQDSEVALVTGATSGIGLEIARRLGKEGLRVFVCARGEEGLRTTLKELREAGVEADGRTCDVRSVPEIEALVAAVVERYGPVDVLVNNAGRPGGGATAELADELWLDVVETNLTGVFRVTKQVLKAGGMLERGTGRIVNIASTGGKQGVVHAAPYSASKHGVVGFTKALGLELARTGITVNAVCPGFVETPMAASVREHYSDIWEVSTEEAFDRITARVPIGRYVQPSEVAEMVAYLIGPGAAAVTAQALNVCGGLGNY

A)
0.76
3.51
